# assayNotes: First PK study: single oral dose, two formulations
# Assay type: in vivo, female Swiss Albino mice
# conditionsUsed: female, Swiss Albino, mouse, plasma, po, 10 mg/kg, single oral 10 mg/kg, Formulation 2, female mice, mean (SD)

# structureSmiles, Cmax
data = [
    ("COc1cc(N2CCNCC2)ccc1Nc1ncc2c(n1)-n1ccc(C(=O)Nc3c(C)cccc3C)c1CC2", "276 ng/mL"),
]

----------
# assayNotes: Second PK study: daily oral dose for 5 days, two formulations
# Format: in vivo, female Swiss Albino mice
# conditionsUsed: Swiss Albino, mouse, plasma; day 5, daily oral 10 mg/kg, Formulation 1, female mice; read-out: Tmax
# Method: In a second study female Swiss Albino mice were administered daily oral dose of 5, 7.5, or 10 mg/kg of the compound of formula (I) for 5 days. […] PK samples were collected on day 5 for groups 1 to 6. Formulation 1 consisted of DMSO, cremophor EL, and 5% mannitol in water (10/10/80; v/v/v). Formulation 2 consisted of ethanol, PEG 400, and citric acid 20 mM (10/10/80; v/v/v). […] PK parameters were calculated using Phoenix® WinNonLin 6.4. […]

# structureSmiles, Tmax
measured = [
    ("COc1cc(N2CCNCC2)ccc1Nc1ncc2c(n1)-n1ccc(C(=O)Nc3c(C)cccc3C)c1CC2", "4 h"),
]

Every entry's value here was drawn from patent US20250057844A1.
